As shown below, each of these compounds has a reported inhibition value.
# SYSTEM_TESTED: Serine/threonine-protein kinase Chk1 (Homo sapiens)
# Sequence (whole entry): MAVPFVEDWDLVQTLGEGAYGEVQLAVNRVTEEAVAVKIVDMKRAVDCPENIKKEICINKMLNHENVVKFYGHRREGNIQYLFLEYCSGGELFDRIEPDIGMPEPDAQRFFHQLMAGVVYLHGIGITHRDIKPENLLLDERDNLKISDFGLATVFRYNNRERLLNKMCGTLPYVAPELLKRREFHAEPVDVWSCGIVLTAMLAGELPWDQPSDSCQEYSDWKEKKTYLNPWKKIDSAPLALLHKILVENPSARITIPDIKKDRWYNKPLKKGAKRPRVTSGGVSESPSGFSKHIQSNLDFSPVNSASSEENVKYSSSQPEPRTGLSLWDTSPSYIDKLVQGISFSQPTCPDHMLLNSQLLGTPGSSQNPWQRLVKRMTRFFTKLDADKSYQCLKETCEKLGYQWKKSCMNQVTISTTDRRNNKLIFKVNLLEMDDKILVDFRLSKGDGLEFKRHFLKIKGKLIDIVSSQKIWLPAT
# PROCEDURE_SUMMARY: Inhibition of CHEK1 at 10 uM after 60 mins by TR-FRET assay

Solved entries:
{"COMPOUND": "O=c1n(Cc2ccncc2)nc(-c2ccnc(NC3CCCCC3)c2)n1-c1ccc2ccccc2c1", "MEASURED_METRIC": "inhibition", "VALUE_OBSERVED": "-9%"}
{"COMPOUND": "O=c1[nH]nc(-c2ccnc(NC3CCCOC3)c2)n1-c1ccc2ccccc2c1 (stereo not given)", "MEASURED_METRIC": "inhibition", "VALUE_OBSERVED": "-9%"}
{"COMPOUND": "O=c1n(Cc2ccccn2)nc(-c2ccnc(NC3CCOCC3)c2)n1-c1ccc2ccccc2c1", "MEASURED_METRIC": "inhibition", "VALUE_OBSERVED": "-9%"}
{"COMPOUND": "O=c1n(C2CCOCC2)nc(-c2ccnc(NC3CCCCC3)c2)n1-c1ccc2ccccc2c1", "MEASURED_METRIC": "inhibition", "VALUE_OBSERVED": "-4%"}

Problem: Quick one: inhibition of `O=c1[nH]nc(-c2ccnc(NC3CCCCC3)c2)n1-c1ccc2ccccc2c1` ?
Result: -5%

---

# SYSTEM_TESTED: cAMP-dependent protein kinase catalytic subunit alpha (Homo sapiens)
# PROCEDURE_SUMMARY: Inhibition of PRKACA at 10 uM after 60 mins by TR-FRET assay
Each record here notes measured inhibition.
Please reply with the bare figure in % and do not write the unit itself.

Field: example entries. Status: answers known.
{"COMPOUND": "O=c1n(Cc2ccccn2)nc(-c2ccnc(NC3CCOCC3)c2)n1-c1ccc2ccccc2c1", "RESULT_UNIT": "%", "inhibition": 2}
{"COMPOUND": "O=c1[nH]nc(-c2ccnc(NC3CCOCC3)c2)n1-c1ccc2ccccc2c1", "RESULT_UNIT": "%", "inhibition": 6}
{"COMPOUND": "O=c1n(Cc2ccncc2)nc(-c2ccnc(NC3CCCCC3)c2)n1-c1ccc2ccccc2c1", "RESULT_UNIT": "%", "inhibition": 6}
{"COMPOUND": "O=c1[nH]nc(-c2ccnc(NC3CCCOC3)c2)n1-c1ccc2ccccc2c1 (stereo unspecified)", "RESULT_UNIT": "%", "inhibition": 47}
{"COMPOUND": "O=c1n(C2CCOCC2)nc(-c2ccnc(NC3CCCCC3)c2)n1-c1ccc2ccccc2c1", "RESULT_UNIT": "%", "inhibition": 13}

Could you now consider this next compound?
Problem: // map `O=c1[nH]nc(-c2ccnc(NC3CCCCC3)c2)n1-c1ccc2ccccc2c1` to recorded inhibition (system: cAMP-dependent protein kinase catalytic subunit alpha (Homo sapiens))
Result: 3
